test system: SK-MEL-28; assay: NCI tumour cell line growth inhibition, 48 h
Active and inactive are the calls of the source. Rule as the data show it: active = GI50 up to about 1.1 µM and inactive = higher.

compound: O=c1cc(/C=C/c2ccc(O)c(O)c2)cc(/C=C/c2ccc(O)c(O)c2)o1
GI50: 16.4 µM (inactive)

compound: Oc1c(NCn2nc(CCCCCCCCc3nn(CNc4ccc5ccccc5c4O)c(=S)o3)oc2=S)ccc2ccccc12
GI50: 49.7 µM (inactive)

compound: C1#Cc2ccccc2OCCOc2ccccc2C#Cc2ccccc2OCCOc2ccccc21
GI50: 70.8 µM (inactive)

compound: O=C1CC(O)c2c(Cl)sc(Cl)c21 (centres undefined)
GI50: 6.46 µM (inactive)

###

tested on: SK-MEL-28; assay: NCI tumour cell line growth inhibition, 48 h
Calls of active or inactive are those of the source. Cut-off read from the data, not from the text of the source: active = GI50 up to about 1.1 µM and inactive = higher.
Possible outcomes: 1 = active, -1 = inactive

compound: CCOC(=O)C1=CN2C(=N[C@H]3CCCC[C@@H]32)NC1=O
class name: -1
--
compound: CCOC(=O)N1CCc2cc(OC)c(OC)c3c2c1cc1cc(OC)c(OC)cc13
class name: -1
--
compound: O=C(O)c1c(-c2nccc3ccccc23)[nH]c(-c2ccccc2)c1S(=O)(=O)O
class name: -1
--
compound: COC1C=C(NCC2(CO)CCC2)N=C(N)N1 (stereo not drawn)
class name: -1
--
compound: CN(C)c1ccc(/C=N/c2ccc(Oc3ccc(Cl)cc3)c(Cl)c2)cc1
class name: -1
--
compound: O=C1Nc2nccnc2C(=O)N2CCC[C@@H]12
class name: -1
--
compound: Cc1c[nH]c2c1C13CC1CN(C(=O)c1cc4cc(NC(=O)c5cc6ccccc6o5)ccc4[nH]1)C3=CC2=O (stereo not drawn)
class name: 1
--
compound: CCC1=CCC(P(=O)(c2ccccc2)c2ccccc2)CC1C (stereo not drawn)
class name: -1
--
compound: O=P12N(CCN1c1ccccc1)CCN2c1ccccc1
class name: -1
--
compound: Cc1c(-c2coc(-c3ccc(Cl)cc3)n2)c(=O)n(-c2ccccc2)n1C
class name: -1
--
compound: C[C@]12CCC(=O)C(O)=C1CC[C@@H]1C2CC[C@]2(C)NC(=O)CCC12 (stereo partly drawn)
class name: -1
--
compound: Cc1ccc(C)c(NC(=O)C(=O)Nn2c(S)nc3ccccc3c2=O)c1
class name: -1
--
compound: Cc1cccc(/N=N/c2ccc(/N=N/c3c(O)ccc4ccccc34)cc2C)c1
class name: -1
--
compound: COC1=CC(=O)C2[C@H]3Cc4ccccc4[C@H]3C2(C)C1=O (stereo partly drawn)
class name: -1
--
compound: N/C(=N\O)N/N=C/c1ccc(O)c(O)c1
class name: -1
--
compound: Cc1ccccc1Nc1cn(COCc2ccccc2)c(=O)[nH]c1=O
class name: -1
--
compound: COc1ccc(OC)c(/C=N/N=C(\N)NO)c1
class name: -1
--
compound: CN(C)CS/C(N)=N\C(O)C(Cl)(Cl)Cl (stereo not drawn)
class name: -1
--
compound: c1ccc(C[N+]23C(CC[C@H]2c2ccccc2)CC[C@H]3c2ccccc2)cc1 (stereo partly drawn)
class name: -1
--
compound: Cc1ccc2c(/C=C/c3ccc(N(C)C)cc3)ccnc2c1C
class name: -1
--
compound: NC(=S)N/N=C1\C(=O)Nc2c(Cl)cc(Cl)cc21
class name: -1
--
compound: CC1=NN(c2nc(N)nc(/C(C#N)=C\c3ccc(-c4ccc([N+](=O)[O-])cc4)o3)n2)C(C)(C)C1
class name: -1
--
compound: CC(=O)Oc1c2ccsc2c(OC(C)=O)c2ccsc12
class name: 1
--
compound: Oc1cc2c(cc1O)-c1[nH]ncc1CC2
class name: -1
--
compound: CCCCCCCCCC(=O)N[C@@H](c1ccco1)[C@@H](O)C(=O)O[C@H]1C[C@@]2(O)[C@@H](OC(=O)c3ccccc3)[C@@H]3[C@]4(OC(C)=O)CO[C@@H]4C[C@H](O)[C@@]3(C)C(=O)[C@H](OC(C)=O)C(=C1C)C2(C)C
class name: 1
--
compound: O=C1c2cccc3cccc(c23)C(=O)N1CCCNOCCONCCCN1C(=O)c2cccc3cccc(c23)C1=O
class name: -1
--
compound: CO/N=C(/C(=O)OC)c1ccccc1COc1ccccc1C(F)(F)F
class name: -1
--
compound: Cc1[nH]c(=O)[nH]c(=O)c1/C=C/C(=O)NC(CO)C[S+]([O-])C[S+](C)[O-] (stereo not drawn)
class name: -1
--
compound: C=Cc1cc2c(cc1O)CC[C@@H]1[C@@H]2CC[C@]2(C)[C@@H](O)CC[C@@H]12
class name: -1
--
compound: CCOc1ccccc1/N=N/c1c(-c2ccccc2)nn(C(=O)CC(=O)Nc2cccc(Cl)c2)c1-c1ccccc1
class name: -1
--
compound: CCc1cccc(C(C)C)c1NC(=O)CCl
class name: -1
--
compound: CC(=O)OC12C(C)=C(C)C(=O)N1c1ccccc1N2C(C)=O (stereo not drawn)
class name: -1
--
compound: C=Nc1ccc([N+](=O)[O-])cc1
class name: -1
--
compound: Oc1c(-c2ccccc2)sc2ccccc12
class name: -1
--
compound: COc1ccc2c(c1)C1c3ccccc3CCN1CCC2 (stereo not drawn)
class name: -1
--
compound: CC(NC(=O)/C(C#N)=C/c1ccc2[nH]ccc2c1)c1ccccc1 (stereo not drawn)
class name: -1
--
compound: c1cncc(C2N3CCCCC3[C@@H]3c4[nH]c5ccccc5c4CCN23)c1 (stereo partly drawn)
class name: -1
--
compound: Cc1cc(=O)oc2cc(OC(=O)N(C)C)c(Cl)cc12
class name: -1
--
compound: c1ccc2c(c1)CCN(C1=NCCO1)C2
class name: -1
--
compound: C=CCN1CN(c2ccccc2)C2(CCN(CCCC3(c4ccc(F)cc4)OCCO3)CC2)C1=O
class name: -1
--
compound: CCCCCCCCCCCCCCCC/C(C(=O)OC)=C(/O)C(=O)OCC
class name: -1
--
compound: CNc1nnc(CNc2ccc(-c3nnc(NC)n3N)cc2)n1N
class name: -1
--
compound: CCN(CC)c1c(N(CC)CC)c(=O)c1=O
class name: -1
